System: Tobacco Budworm [Heliothis virescens (Fabricius)] larvae
Assay: Tobacco budworm larvae, contact (TBW-C), 5 days
Type: in vivo
Settings: percent in solution, second-instar larvae
Response field label: string, one of label 1 (LC50 TBW C (contact) strictly below 0.0004%) or label 0.

molecule="CC(C)C(=Nc1ccc(Cl)c(Cl)c1)OCc1ccc(F)c(Oc2ccc(Cl)cc2)c1 [Compound 296]" label_class="label 0"
molecule="CC(C)(C)c1ccc(N=C(OCc2cccc(Oc3ccccc3)c2)C(Cl)Cl)cc1 [Compound 140]" label_class="label 0"
molecule="Cc1c(F)cccc1N=C(OCc1cccc(Oc2ccccc2)c1)C(C)C [Compound 73]" label_class="label 0"
molecule="CC(C)C(=Nc1ccc(F)c(I)c1)OCc1ccc(F)c(Oc2ccc(F)cc2)c1 [Compound 281]" label_class="label 1"
molecule="CC(C)C(=Nc1ccc(OC(F)(F)F)cc1)OCc1ccc(F)c(Oc2ccc(Cl)cc2)c1 [Compound 323]" label_class="label 0"
molecule="CC(C)C(=Nc1ccc(F)c(C(F)(F)F)c1)OCc1ccc(F)c(Oc2ccc(Cl)cc2)c1 [Compound 297]" label_class="label 0"

* * *

Tested on: Tobacco Budworm [Heliothis virescens (Fabricius)] larvae
Assay: Tobacco budworm larvae, contact (TBW-C), 5 days
Format: in vivo
Settings: percent in solution, second-instar larvae
Criterion: LC50 TBW C (contact) strictly under 0.0009%. Met: yes (1). Not met: no (0).

record_smiles=CC(C)C(=Nc1ccc(C(F)(F)F)cc1)OCc1cccc(Oc2ccc(Cl)cc2)n1 label_class="yes (1)"
record_smiles=CC(C)C(=Nc1ccc(F)c(Cl)c1)OCc1ccc(F)c(Oc2ccc(F)cc2)c1 label_class="yes (1)"
record_smiles=CC(C)C(=Nc1ccc(F)c(F)c1)OCc1cccc(Oc2ccccc2)c1 label_class="no (0)"
record_smiles=Cc1ccc(N=C(OCc2cccc(Oc3ccccc3)c2)C(Cl)Cl)cc1 label_class="no (0)"
record_smiles=Clc1ccc(N=C(OCc2cccc(Oc3ccccc3)c2)C(Cl)Cl)cc1 label_class="no (0)"
record_smiles=ClC(Cl)C(=Nc1ccccc1)OCc1cccc(Oc2ccccc2)c1 label_class="no (0)"
record_smiles=CC(C)C(=Nc1ccc(F)c(F)c1)OCc1ccc(F)c(Oc2ccc(F)cc2)c1 label_class="yes (1)"
record_smiles=CC(C)C(=Nc1ccc(Cl)c(Cl)c1)OCc1cccc(Oc2ccc(F)cc2)c1 label_class="yes (1)"
record_smiles=CC(C)C(=Nc1ccc(F)c(F)c1F)OCc1cccc(Oc2ccc(F)cc2)c1 label_class="yes (1)"
record_smiles=CCOc1ccc(N=C(OCc2cccc(Oc3ccccc3)c2)C(Cl)Cl)cc1 label_class="no (0)"
record_smiles=CC(C)C(=Nc1ccc(OC(F)(F)F)cc1)OCc1ccc(F)c(Oc2ccc(F)c(F)c2)c1 label_class="yes (1)"
record_smiles=CC(C)C(=Nc1cccc(Cl)c1)OCc1cccc(Oc2ccc(F)cc2)c1 label_class="no (0)"
record_smiles=CC(C)C(=Nc1ccc(I)cc1)OCc1ccc(F)c(Oc2ccc(F)cc2)c1 label_class="yes (1)"
record_smiles=Cc1cc(Cl)ccc1N=C(OCc1cccc(Oc2ccccc2)c1)C(C)C label_class="no (0)"
record_smiles=CC(C)C(=Nc1ccc(F)c(C(F)(F)F)c1)OCc1ccc(F)c(Oc2ccc(F)cc2)c1 label_class="yes (1)"
record_smiles=CC(C)(C)C(=Nc1ccc(F)c(Cl)c1)OCc1cccc(Oc2ccc(F)cc2)c1 label_class="no (0)"
